# credit: patent US8614327B2

testedTarget: ΔF508-CFTR (Homo sapiens, UniProt P13569, DEL508-508)
Construct: expressed in transfected cells
Sequence (P13569 with tags, fused parts or gaps DEL508-508): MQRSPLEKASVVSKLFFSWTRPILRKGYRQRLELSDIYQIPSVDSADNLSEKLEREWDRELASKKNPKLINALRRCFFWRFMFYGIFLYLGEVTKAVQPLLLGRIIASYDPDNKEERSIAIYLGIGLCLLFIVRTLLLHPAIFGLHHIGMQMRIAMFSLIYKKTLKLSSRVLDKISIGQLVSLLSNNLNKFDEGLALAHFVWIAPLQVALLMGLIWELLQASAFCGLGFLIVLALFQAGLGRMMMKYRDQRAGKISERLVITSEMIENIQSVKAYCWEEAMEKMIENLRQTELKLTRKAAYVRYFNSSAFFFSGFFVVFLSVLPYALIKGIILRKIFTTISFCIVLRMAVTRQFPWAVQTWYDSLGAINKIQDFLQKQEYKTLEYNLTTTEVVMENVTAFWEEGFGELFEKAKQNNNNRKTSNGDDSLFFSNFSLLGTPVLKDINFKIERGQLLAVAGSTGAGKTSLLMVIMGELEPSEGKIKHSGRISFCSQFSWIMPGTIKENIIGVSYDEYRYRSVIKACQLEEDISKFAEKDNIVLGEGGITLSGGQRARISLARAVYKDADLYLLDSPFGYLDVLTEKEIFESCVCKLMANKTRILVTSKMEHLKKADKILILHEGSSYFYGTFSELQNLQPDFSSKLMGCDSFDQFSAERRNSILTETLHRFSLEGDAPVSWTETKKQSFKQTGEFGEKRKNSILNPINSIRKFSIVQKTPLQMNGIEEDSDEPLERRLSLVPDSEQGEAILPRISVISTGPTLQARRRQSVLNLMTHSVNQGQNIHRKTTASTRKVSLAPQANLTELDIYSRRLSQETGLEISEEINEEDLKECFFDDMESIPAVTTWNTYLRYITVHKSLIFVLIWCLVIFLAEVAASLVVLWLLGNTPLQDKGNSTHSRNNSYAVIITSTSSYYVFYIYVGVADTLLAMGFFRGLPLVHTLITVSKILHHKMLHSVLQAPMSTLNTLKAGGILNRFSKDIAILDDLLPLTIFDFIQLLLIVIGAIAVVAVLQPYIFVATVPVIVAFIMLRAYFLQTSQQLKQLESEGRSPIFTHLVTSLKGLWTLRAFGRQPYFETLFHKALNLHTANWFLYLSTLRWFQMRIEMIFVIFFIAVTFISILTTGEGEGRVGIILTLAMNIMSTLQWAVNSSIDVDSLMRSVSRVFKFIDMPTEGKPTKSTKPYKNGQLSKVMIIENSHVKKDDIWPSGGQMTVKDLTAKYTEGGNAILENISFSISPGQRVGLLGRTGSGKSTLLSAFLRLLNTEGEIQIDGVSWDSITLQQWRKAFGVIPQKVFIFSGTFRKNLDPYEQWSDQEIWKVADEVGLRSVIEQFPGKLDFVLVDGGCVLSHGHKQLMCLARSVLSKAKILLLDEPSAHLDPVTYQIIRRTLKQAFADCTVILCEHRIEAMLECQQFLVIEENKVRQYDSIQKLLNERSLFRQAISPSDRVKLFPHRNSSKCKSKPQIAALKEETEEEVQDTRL
testMethodNotes: Membrane potential optical (FRET/VIPR) assay, identification of potentiator compounds
Format: cell-based
conditionDescription: Table 3; relative efficacy; assay not given

[
  {
    "molecule": "Cc1ccccc1NC(=O)c1c[nH]c2ccccc2c1=O [Compound 459]",
    "% Activity": "++ (between 25% to 100%)"
  },
  {
    "molecule": "CCOc1cccc(-c2cc(C(C)(C)C)c(O)cc2NC(=O)c2c[nH]c3ccccc3c2=O)c1 [Compound 43]",
    "% Activity": "++ (between 25% to 100%)"
  },
  {
    "molecule": "Nc1cc(NC(=O)c2c[nH]c3ccccc3c2=O)cc(C(F)(F)F)c1 [Compound 429]",
    "% Activity": "++ (between 25% to 100%)"
  },
  {
    "molecule": "O=C(Nc1ccc2cc(C(F)(F)F)[nH]c2c1)c1c[nH]c2ccccc2c1=O [Compound 537]",
    "% Activity": "++ (between 25% to 100%)"
  },
  {
    "molecule": "CCc1cc2cc[nH]c2cc1NC(=O)c1c[nH]c2ccccc2c1=O [Compound 351]",
    "% Activity": "++ (between 25% to 100%)"
  },
  {
    "molecule": "O=C(Nc1ccccc1-c1ccccn1)c1c[nH]c2ccccc2c1=O [Compound 692]",
    "% Activity": "++ (between 25% to 100%)"
  },
  {
    "molecule": "COc1ccc(NC(C)=O)cc1NC(=O)c1c[nH]c2ccccc2c1=O [Compound 250]",
    "% Activity": "+ (<25%)"
  },
  {
    "molecule": "O=C(Nc1cnc2ccccc2c1)c1c[nH]c2ccccc2c1=O [Compound 75]",
    "% Activity": "+ (<25%)"
  },
  {
    "molecule": "Cc1ccccc1Oc1ccccc1NC(=O)c1c[nH]c2ccccc2c1=O [Compound 20]",
    "% Activity": "++ (between 25% to 100%)"
  },
  {
    "molecule": "O=C(Nc1ccc(C23CC4CC(CC(C4)C2)C3)cc1)c1c[nH]c2ccccc2c1=O [Compound 455]",
    "% Activity": "++ (between 25% to 100%)"
  },
  {
    "molecule": "C=Cc1ccc(NC(=O)c2c[nH]c3ccccc3c2=O)cc1 [Compound 452]",
    "% Activity": "++ (between 25% to 100%)"
  },
  {
    "molecule": "O=C(Nc1cc(C(F)(F)F)cc(C(F)(F)F)c1)c1c[nH]c2ccccc2c1=O [Compound 154]",
    "% Activity": "+ (<25%)"
  }
]

* * *

testedTarget: ΔF508-CFTR (Homo sapiens, UniProt P13569, DEL508-508)
testMethodNotes: Membrane potential optical (FRET/VIPR) assay, identification of potentiator compounds
conditionDescription: Table 3; assay not given
pEC50: −log10 of the molar value.

[
  {
    "compound": "CCc1cccc(CC)c1NC(=O)c1c[nH]c2ccccc2c1=O [Compound 325]",
    "testedTarget": "ΔF508-CFTR (Homo sapiens, UniProt P13569, DEL508-508)",
    "pEC50": "> 5.00"
  },
  {
    "compound": "CC(C)(C)OC(=O)NC1CCCc2ccc(NC(=O)c3c[nH]c4ccccc4c3=O)cc21 (stereo not drawn) [Compound 273]",
    "testedTarget": "ΔF508-CFTR (Homo sapiens, UniProt P13569, DEL508-508)",
    "pEC50": "> 5.00"
  },
  {
    "compound": "CCCc1ccc(NC)cc1NC(=O)c1c[nH]c2ccccc2c1=O [Compound 356]",
    "testedTarget": "ΔF508-CFTR (Homo sapiens, UniProt P13569, DEL508-508)",
    "pEC50": "> 5.00"
  },
  {
    "compound": "O=C(Nc1ccc(N2CCC[C@@H]2C(=O)O)cc1C(F)(F)F)c1c[nH]c2ccccc2c1=O [Compound 698]",
    "testedTarget": "ΔF508-CFTR (Homo sapiens, UniProt P13569, DEL508-508)",
    "pEC50": "> 5.00"
  },
  {
    "compound": "O=C(Nc1cccc(O)c1)c1c[nH]c2ccccc2c1=O [Compound 144]",
    "testedTarget": "ΔF508-CFTR (Homo sapiens, UniProt P13569, DEL508-508)",
    "pEC50": "> 5.00"
  },
  {
    "compound": "COc1ccc2[nH]cc(C(=O)Nc3ccc(N4CCC[C@@H]4C)cc3C(F)(F)F)c(=O)c2c1 [Compound 601]",
    "testedTarget": "ΔF508-CFTR (Homo sapiens, UniProt P13569, DEL508-508)",
    "pEC50": "> 5.00"
  },
  {
    "compound": "CN(C)c1ccc(-c2ccccc2NC(=O)c2c[nH]c3ccccc3c2=O)cc1 [Compound 12]",
    "testedTarget": "ΔF508-CFTR (Homo sapiens, UniProt P13569, DEL508-508)",
    "pEC50": "> 5.00"
  },
  {
    "compound": "O=C(Nc1ccc(N2CCCC2)cc1C(F)(F)F)c1c[nH]c2ccccc2c1=O [Compound 658]",
    "testedTarget": "ΔF508-CFTR (Homo sapiens, UniProt P13569, DEL508-508)",
    "pEC50": "> 5.00"
  },
  {
    "compound": "O=C(Nc1cccc2nsnc12)c1c[nH]c2ccccc2c1=O [Compound 54]",
    "testedTarget": "ΔF508-CFTR (Homo sapiens, UniProt P13569, DEL508-508)",
    "pEC50": "4.22 to 4.60"
  },
  {
    "compound": "CCOc1ccccc1-c1ccc(CN)cc1NC(=O)c1c[nH]c2ccccc2c1=O [Compound 163]",
    "testedTarget": "ΔF508-CFTR (Homo sapiens, UniProt P13569, DEL508-508)",
    "pEC50": "4.60 to 5.00"
  },
  {
    "compound": "CC(C)(C)c1cc(C(C)(C)C)c(NC(=O)c2c[nH]c3ccc(Br)cc3c2=O)cc1O [Compound 553]",
    "testedTarget": "ΔF508-CFTR (Homo sapiens, UniProt P13569, DEL508-508)",
    "pEC50": "> 5.00"
  },
  {
    "compound": "O=C(Nc1ccccc1N1CCCC1)c1c[nH]c2ccccc2c1=O [Compound 295]",
    "testedTarget": "ΔF508-CFTR (Homo sapiens, UniProt P13569, DEL508-508)",
    "pEC50": "> 5.00"
  },
  {
    "compound": "CC(C)OC(=O)c1cccc(-c2ccccc2NC(=O)c2c[nH]c3ccccc3c2=O)c1 [Compound 71]",
    "testedTarget": "ΔF508-CFTR (Homo sapiens, UniProt P13569, DEL508-508)",
    "pEC50": "> 5.00"
  },
  {
    "compound": "COC(=O)[C@]1(C)CCCN1c1ccc(NC(=O)c2c[nH]c3ccccc3c2=O)c(C(F)(F)F)c1 [Compound 631]",
    "testedTarget": "ΔF508-CFTR (Homo sapiens, UniProt P13569, DEL508-508)",
    "pEC50": "> 5.00"
  },
  {
    "compound": "Cc1cccc2[nH]cc(C(=O)Nc3ccc(N4CC(F)(F)C[C@H]4C)cc3C(F)(F)F)c(=O)c12 [Compound 667]",
    "testedTarget": "ΔF508-CFTR (Homo sapiens, UniProt P13569, DEL508-508)",
    "pEC50": "> 5.00"
  },
  {
    "compound": "Cc1cc(C(C)(C)C)c(O)cc1NC(=O)c1c[nH]c2ccc(F)cc2c1=O [Compound 683]",
    "testedTarget": "ΔF508-CFTR (Homo sapiens, UniProt P13569, DEL508-508)",
    "pEC50": "> 5.00"
  },
  {
    "compound": "CCCOc1ccc(NC(=O)c2c[nH]c3ccccc3c2=O)cc1N [Compound 368]",
    "testedTarget": "ΔF508-CFTR (Homo sapiens, UniProt P13569, DEL508-508)",
    "pEC50": "> 5.00"
  },
  {
    "compound": "COc1nc2ccccc2c(OC)c1C(=O)Nc1cc(NC(=O)OC(C)(C)C)ccc1C(C)(C)C [Compound 39]",
    "testedTarget": "ΔF508-CFTR (Homo sapiens, UniProt P13569, DEL508-508)",
    "pEC50": "4.60 to 5.00"
  },
  {
    "compound": "CC(C)c1ccc(-c2cc3cc[nH]c3cc2NC(=O)c2c[nH]c3ccccc3c2=O)cc1 [Compound 342]",
    "testedTarget": "ΔF508-CFTR (Homo sapiens, UniProt P13569, DEL508-508)",
    "pEC50": "> 5.00"
  },
  {
    "compound": "Cc1ccc2[nH]cc(C(=O)Nc3ccc(N4[C@H](C)CC[C@H]4C)cc3C(F)(F)F)c(=O)c2c1 [Compound 569]",
    "testedTarget": "ΔF508-CFTR (Homo sapiens, UniProt P13569, DEL508-508)",
    "pEC50": "> 5.00"
  },
  {
    "compound": "COCCn1ccc2cc(C(F)(F)F)c(NC(=O)c3c[nH]c4ccc(F)cc4c3=O)cc21 [Compound 566]",
    "testedTarget": "ΔF508-CFTR (Homo sapiens, UniProt P13569, DEL508-508)",
    "pEC50": "> 5.00"
  },
  {
    "compound": "Cc1ccc(NC(=O)c2c[nH]c3ccccc3c2=O)cc1N [Compound 167]",
    "testedTarget": "ΔF508-CFTR (Homo sapiens, UniProt P13569, DEL508-508)",
    "pEC50": "4.60 to 5.00"
  },
  {
    "compound": "Cc1ccc(C(N)=O)c(NC(=O)c2c[nH]c3ccccc3c2=O)c1 [Compound 335]",
    "testedTarget": "ΔF508-CFTR (Homo sapiens, UniProt P13569, DEL508-508)",
    "pEC50": "4.22 to 4.60"
  },
  {
    "compound": "CCc1ccc(NC)cc1NC(=O)c1c[nH]c2ccccc2c1=O [Compound 157]",
    "testedTarget": "ΔF508-CFTR (Homo sapiens, UniProt P13569, DEL508-508)",
    "pEC50": "> 5.00"
  },
  {
    "compound": "NC(=O)c1ccccc1NC(=O)c1c[nH]c2ccccc2c1=O [Compound 331]",
    "testedTarget": "ΔF508-CFTR (Homo sapiens, UniProt P13569, DEL508-508)",
    "pEC50": "4.22 to 4.60"
  },
  {
    "compound": "O=C(Nc1cc2[nH]ccc2cc1C(=O)N1CCCCC1)c1c[nH]c2ccccc2c1=O [Compound 148]",
    "testedTarget": "ΔF508-CFTR (Homo sapiens, UniProt P13569, DEL508-508)",
    "pEC50": "> 5.00"
  },
  {
    "compound": "Nc1cc(NC(=O)c2c[nH]c3ccccc3c2=O)ccc1OC(F)(F)F [Compound 58]",
    "testedTarget": "ΔF508-CFTR (Homo sapiens, UniProt P13569, DEL508-508)",
    "pEC50": "> 5.00"
  }
]
